Assay: Inhibition of wild type Bacillus subtilis DNA polymerase-3 using DNAase 1-treated DNA as template assessed as inhibition of dGTP truncated DNA synthesis by measuring incorporation of [3H]-TMP in presence of dithiothreitol
pKi: −log10 of the molar value.
Each entry falls in a class defined on pKi; the bands are lo = under 5, mid = from 5 up to 6, hi = 6 and over

smiles_input: Cc1cccc(NNc2cc(=O)[nH]c(=O)[nH]2)c1
label_value: mid
--
smiles_input: O=C(O)c1ccc(NNc2cc(=O)[nH]c(=O)[nH]2)cc1
label_value: lo
--
smiles_input: Cn1c(=O)cc(NNc2ccc(O)cc2)[nH]c1=O
label_value: hi
--
smiles_input: O=c1cc(NNc2ccc([N+](=O)[O-])cc2)[nH]c(=O)[nH]1
label_value: lo
--
smiles_input: CCCCc1ccc(NNc2cc(=O)[nH]c(=O)[nH]2)cc1
label_value: lo
--
smiles_input: O=c1cc(NNc2ccc(F)cc2)[nH]c(=O)[nH]1
label_value: mid
--
smiles_input: Cc1cc(NNc2cc(=O)[nH]c(=O)[nH]2)ccc1O
label_value: lo
--
smiles_input: Cc1cc(NNc2cc(=O)[nH]c(=O)[nH]2)cc(C)c1O
label_value: lo
--
smiles_input: O=c1cc(NNc2ccc(Cl)c(Cl)c2)[nH]c(=O)[nH]1
label_value: hi
--
smiles_input: CN(Nc1cc(=O)[nH]c(=O)[nH]1)c1ccccc1
label_value: lo
--
smiles_input: Nc1ccc(NNc2cc(=O)[nH]c(=O)[nH]2)cc1
label_value: mid
--
smiles_input: O=c1cc(NNc2ccc(O)cc2)[nH]c(=O)[nH]1
label_value: hi
--
smiles_input: Cc1ccccc1NNc1cc(=O)[nH]c(=O)[nH]1
label_value: lo
--
smiles_input: CCc1ccccc1NNc1cc(=O)[nH]c(=O)[nH]1
label_value: lo
--
smiles_input: CCc1ccc(NNc2cc(=O)[nH]c(=O)[nH]2)cc1
label_value: mid

---

Listed here: items and their measured pKi.
Experiment: Inhibition of wild type Bacillus subtilis DNA polymerase-3 using DNAase 1-treated DNA as template assessed as inhibition of dGTP truncated DNA synthesis by measuring incorporation of [3H]-TMP in presence of dithiothreitol
pKi: −log10 of the molar value.

smiles_input: Cn1c(=O)cc(NNc2ccccc2)[nH]c1=O
pKi: 5.80

smiles_input: O=c1cc(NNc2cccc(Br)c2)[nH]c(=O)[nH]1
pKi: 5.85

smiles_input: CS(=O)(=O)c1ccc(NNc2cc(=O)[nH]c(=O)[nH]2)cc1
pKi: 3.68

smiles_input: CC(=O)Nc1ccc(NNc2cc(=O)[nH]c(=O)[nH]2)cc1
pKi: 3.25

smiles_input: Cc1ccc(NNc2cc(=O)[nH]c(=O)[nH]2)cc1
pKi: 6.30

smiles_input: O=c1cc(NNc2ccc(O)c(Cl)c2)[nH]c(=O)[nH]1
pKi: 5.06

---

Tested on: Bacillus subtilis
Test: Inhibition of HPUra/HPiCyt-resistant Bacillus subtilis DNA polymerase-3/azp-12 mutant using DNAase 1-treated DNA as template assessed as inhibition of dGTP truncated DNA synthesis by measuring incorporation of [3H]-TMP at 20 uM relative to control in presence of dithiothreitol

smiles_input: O=c1cc(NNc2ccc(F)cc2)[nH]c(=O)[nH]1
inhibition: 93%
--
smiles_input: O=c1cc(NNc2ccc(Br)cc2)[nH]c(=O)[nH]1
inhibition: 95%
--
smiles_input: Cc1cccc(NNc2cc(=O)[nH]c(=O)[nH]2)c1
inhibition: 85%
--
smiles_input: O=c1cc(NNc2ccc(Cl)cc2)[nH]c(=O)[nH]1
inhibition: 95%
